Listed compounds paired with reported IC50
Test system: 233499-124-R-J3-PDC complex spheroid viability
assaySummary: Anticancer human tumor 233499-124-R-J3-PDC patient-derived colon adenocarcinoma cell line growth inhibition [CLK]
experimentalParameters: curve of first compound; second compound 10 µM
Express it in nM; write the number only.

compound | measurementTarget | IC50 (nM)
CC(C)CC(NC(=O)C(Cc1ccccc1)NC(=O)c1cnccn1)B(O)O (stereo not given) + CNC(=O)c1ccc(Nc2nc(OC3CCCC3)c3c(-c4ccc5nc(C)oc5c4)c[nH]c3n2)c(OC)c1 | 233499-124-R-J3-PDC complex spheroid viability | 1.97

Consider now this further compound.
[ask] # get_value(readout='IC50', item= COc1c(OCCCN2CCOCC2)ccc2c3n(c(=NC(=O)c4cnc(N)nc4)nc12)CCN3 + CNC(=O)c1ccc(Nc2nc(OC3CCCC3)c3c(-c4ccc5nc(C)oc5c4)c[nH]c3n2)c(OC)c1 )
[reply] 27.2

* * *

Tested on: 233499-124-R-J3-PDC complex spheroid viability
assaySummary: Anticancer human tumor 233499-124-R-J3-PDC cell line growth inhibition [CLK];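 note: spheroids exposed to the drug combinations for seven days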;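 for viability, T/C: percent viability relative to DMSO vehicle control wells taken as 100%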
experimentalParameters: second compound 3.16 µM; first compound 1 µM; stronger effect = lower value
propertyName: viability, T/C (%)
Express it in %; write the number only.

[ask] State its viability, T/C on 233499-124-R-J3-PDC complex spheroid viability: C#Cc1c(F)ccc2cc(O)cc(-c3ncc4c(N5CC6CCC(C5)N6)nc(OCC56CCCN5CC(F)C6)nc4c3F)c12 (stereo unspecified) + CNC(=O)c1ccc(Nc2nc(OC3CCCC3)c3c(-c4ccc5nc(C)oc5c4)c[nH]c3n2)c(OC)c1
[reply] 70.8

* * *

Tested on: 233499-124-R-J3-PDC complex spheroid viability
assaySummary: Anticancer human tumor 233499-124-R-J3-PDC cell line growth inhibition [CLK];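 note: spheroids exposed to the drug combinations for seven days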;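 for viability, T/C: percent viability relative to DMSO vehicle control wells taken as 100%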
experimentalParameters: second compound 1 µM; first compound 0.1 µM; stronger effect = lower value
Each record gets a class by viability, T/C: low range = under 4%, mid range = from 4% up to 60%, high range = 60% and over

molecule | assignedClass
CCc1c2c(nc3ccc(O)cc13)-c1cc3c(c(=O)n1C2)COC(=O)[C@]3(O)CC + CNC(=O)c1ccc(Nc2nc(OC3CCCC3)c3c(-c4ccc5nc(C)oc5c4)c[nH]c3n2)c(OC)c1 | mid range

[ask] Exercise: read the entry C=CC(=O)N1CCN(c2nc(=O)n(-c3c(C)ccnc3C(C)C)c3nc(-c4c(O)cccc4F)c(F)cc23)C(C)C1 (centres undefined) + CN1CCN(c2cc(C(=O)Nc3cc4cc(-c5cnn(C)c5)ccc4cn3)ccn2)CC1 and state which class it falls under.
[reply] mid range

[ask] Exercise: read the entry CC(=O)O[C@H]1C(=O)[C@@]2(C)[C@H]([C@H](OC(=O)c3ccccc3)[C@]3(O)C[C@H](OC(=O)[C@H](O)[C@@H](NC(=O)c4ccccc4)c4ccccc4)C(C)=C1C3(C)C)[C@]1(OC(C)=O)CO[C@@H]1C[C@@H]2O + CN1CCN(c2cc(C(=O)Nc3cc4cc(-c5cnn(C)c5)ccc4cn3)ccn2)CC1 and state which class it falls under.
[reply] low range

[ask] Exercise: read the entry Nc1ccn(C2OC(CO)C(O)C2(F)F)c(=O)n1 (centres undefined) + CNC(=O)c1ccc(Nc2nc(OC3CCCC3)c3c(-c4ccc5nc(C)oc5c4)c[nH]c3n2)c(OC)c1 and state which class it falls under.
[reply] mid range

[ask] Exercise: read the entry COc1ccc([C@@H](O)c2cc(-c3ncnc4cc(N5CCOCC5)ccc34)c(F)cc2Cl)nn1 + CN1CCN(c2cc(C(=O)Nc3cc4cc(-c5cnn(C)c5)ccc4cn3)ccn2)CC1 and state which class it falls under.
[reply] low range

[ask] Exercise: read the entry C=C(F)C(=O)N1CCN(c2nc(OCC3CCCN3C)nc3c2CCN(c2cccc4cccc(Cl)c24)C3)CC1CC#N (centres undefined) + CNC(=O)c1ccc(Nc2nc(OC3CCCC3)c3c(-c4ccc5nc(C)oc5c4)c[nH]c3n2)c(OC)c1 and state which class it falls under.
[reply] high range

[ask] Exercise: read the entry CCCS(=O)(=O)Nc1ccc(F)c(C(=O)c2c[nH]c3ncc(-c4ccc(Cl)cc4)cc23)c1F + CN1CCN(c2cc(C(=O)Nc3cc4cc(-c5cnn(C)c5)ccc4cn3)ccn2)CC1 and state which class it falls under.
[reply] mid range

[ask] Exercise: read the entry CC(=O)O[C@H]1C(=O)[C@@]2(C)[C@H]([C@H](OC(=O)c3ccccc3)[C@]3(O)C[C@H](OC(=O)[C@H](O)[C@@H](NC(=O)c4ccccc4)c4ccccc4)C(C)=C1C3(C)C)[C@]1(OC(C)=O)CO[C@@H]1C[C@@H]2O + CNC(=O)c1ccc(Nc2nc(OC3CCCC3)c3c(-c4ccc5nc(C)oc5c4)c[nH]c3n2)c(OC)c1 and state which class it falls under.
[reply] high range
